Target: T1, GST-human NOGO-A56 (human)
T1 construct: Expressed in E. coli BL21 from pGEX-6P1 and purified on glutathione-sepharose; the GST tag is part of the protein in the assays; also called GST-Nogo-A 5+6; GST Nogo-A 5 + 6
T1 sequence (chain, as listed by the source limits assumed): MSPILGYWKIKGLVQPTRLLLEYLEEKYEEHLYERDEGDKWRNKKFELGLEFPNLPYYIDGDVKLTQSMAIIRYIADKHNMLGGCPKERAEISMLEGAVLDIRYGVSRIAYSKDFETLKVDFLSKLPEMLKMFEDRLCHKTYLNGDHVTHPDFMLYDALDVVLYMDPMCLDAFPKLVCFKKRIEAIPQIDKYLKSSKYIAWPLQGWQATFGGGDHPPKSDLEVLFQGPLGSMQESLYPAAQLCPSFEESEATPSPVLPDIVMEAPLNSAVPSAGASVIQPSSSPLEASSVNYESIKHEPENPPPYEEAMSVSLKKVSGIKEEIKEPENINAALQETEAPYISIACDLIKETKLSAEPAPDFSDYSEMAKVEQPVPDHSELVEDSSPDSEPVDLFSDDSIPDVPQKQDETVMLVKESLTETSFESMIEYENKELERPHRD
Assay: SPR (Biacore), GST-human NOGO-A56 amine-coupled to CM5, antibody flowed over, 25 C
Attribute: kon
Answer in M⁻¹ s⁻¹, number only, no unit symbol.

Consider the worked cases shown below.
Query :: Look at this binder and give its reported kon. HcLc (chimera of 2A10: murine 2A10 VH and VL with human IgG constant regions) (antibody, V domains shown, also called chimeric antibody; chimeric form of the parental antibody) VH: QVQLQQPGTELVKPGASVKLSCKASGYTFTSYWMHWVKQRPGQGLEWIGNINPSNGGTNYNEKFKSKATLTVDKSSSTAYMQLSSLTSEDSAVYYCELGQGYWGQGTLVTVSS VL: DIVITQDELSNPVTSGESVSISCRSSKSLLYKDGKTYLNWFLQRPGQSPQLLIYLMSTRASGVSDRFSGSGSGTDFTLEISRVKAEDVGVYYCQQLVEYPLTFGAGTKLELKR
Result :: 3.17e+06

Query :: Do the same for H28L13 (antibody, human IgG1, kappa, V domains shown, IgG1 (L235A, G237A) / kappa; CAMPATH-1H signal (1-19) left out; also called H28FL L13FL) VH: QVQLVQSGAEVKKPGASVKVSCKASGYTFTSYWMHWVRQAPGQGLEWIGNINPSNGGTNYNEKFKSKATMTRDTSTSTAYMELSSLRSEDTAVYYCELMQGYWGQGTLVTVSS VL: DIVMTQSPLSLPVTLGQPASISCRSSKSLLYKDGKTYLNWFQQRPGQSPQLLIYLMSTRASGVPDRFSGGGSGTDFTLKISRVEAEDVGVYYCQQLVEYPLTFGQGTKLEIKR please
Result :: 6.97e+06

Query :: Do the same for H26L13 (antibody, human IgG1, kappa, V domains shown, H26 FL is H6 FL with G95M (Kabat); IgG1 (L235A, G237A) / kappa; CAMPATH-1H signal (1-19) left out; also called H6(G95M)L13; H6L13 with VH CDR3 MQGY) VH: QVQLVQSGAEVKKPGASVKVSCKASGYTFTSYWMHWVRQAPGQGLEWIGNINPSNGGTNYNEKFKSRATMTRDTSTSTAYMELSSLRSEDTAVYYCELMQGYWGQGTLVTVSS VL: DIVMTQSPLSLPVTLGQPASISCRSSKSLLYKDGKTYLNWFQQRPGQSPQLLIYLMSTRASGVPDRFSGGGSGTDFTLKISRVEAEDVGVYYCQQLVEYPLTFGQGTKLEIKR please
Result :: 3.45e+06

Continuing:
Query :: Look at this binder and give its reported kon. H27L13 (antibody, human IgG1, kappa, V domains shown, IgG1 (L235A, G237A) / kappa; CAMPATH-1H signal (1-19) left out) VH: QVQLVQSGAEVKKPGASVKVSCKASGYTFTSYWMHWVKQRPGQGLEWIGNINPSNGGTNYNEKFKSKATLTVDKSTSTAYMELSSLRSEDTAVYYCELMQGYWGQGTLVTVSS VL: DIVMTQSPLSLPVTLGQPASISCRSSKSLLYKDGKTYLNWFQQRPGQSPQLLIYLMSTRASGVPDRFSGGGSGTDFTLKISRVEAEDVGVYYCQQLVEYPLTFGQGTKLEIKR
Result :: 6.58e+06
